From: paper PMC5540273

System: HIPK1;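 also: KINOMEscan kinase panel screen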
CONDITION INFO: concentration: 1 μM, replicates: in singlicate; n = 1
QUANTITY NAME: %Inh (%)
The reply should contain only the number, in %.

>>> print(df.to_string())
                                   compound  assayed_target  u  value
0  FC(F)(F)c1ccccc1-c1cc(-c2c[nH]nc2-c2ccccn2)ccn1 [GW679396]           HIPK1  %      0

// query Name the reported %Inh value associated with the compound COc1ccc(CSc2nnc(-c3ccc4ncsc4c3)o2)cc1C(F)(F)F
// result 38

// query Suppose we examine the compound CCc1ccc(-c2ccc3c(c2)-c2n[nH]cc2S(=O)(=O)N3C)cc1 ; what %Inh value has been reported?
// result 0

// query # %Inh lookup, item CCn1c(-c2c(N)noc2C)nc2cnccc21 [SB-737856]
// result 0

// query // returns reported %Inh for input CC[C@@H]1CO[C@H](C(=O)Nc2ccccc2)CN1c1cc(-c2ccc3c(N)n[nH]c3c2)nc(NC)n1 [GSK2376236]
// result 9
